- MEASUREMENT_TARGET: T1, human GIP receptor (human) (UniProt P48546)
- T1 sequence (looked up): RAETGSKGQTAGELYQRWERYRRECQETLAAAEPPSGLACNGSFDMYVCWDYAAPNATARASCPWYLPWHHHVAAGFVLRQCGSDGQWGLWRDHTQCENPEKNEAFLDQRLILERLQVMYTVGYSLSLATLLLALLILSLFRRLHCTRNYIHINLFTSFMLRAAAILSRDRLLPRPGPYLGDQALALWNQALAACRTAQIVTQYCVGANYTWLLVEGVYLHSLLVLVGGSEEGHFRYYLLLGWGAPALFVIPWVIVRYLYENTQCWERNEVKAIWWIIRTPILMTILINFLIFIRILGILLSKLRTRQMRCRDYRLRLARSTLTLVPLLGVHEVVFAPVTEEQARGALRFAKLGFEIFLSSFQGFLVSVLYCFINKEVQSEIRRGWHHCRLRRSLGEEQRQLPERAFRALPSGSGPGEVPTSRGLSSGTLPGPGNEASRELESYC
- RUN_DESCRIPTION: cell-based or functional assay
Relative cAMP EC50 values by entry
Numeric answer only, unit nM assumed.

{"columns": ["BINDER", "MEASURED_METRIC", "MEASUREMENT"],
 "data": [
  ["YXQGTXTSDXSILLDKKAQXAFIEYLEEGGPSSGAPPPSGTEE (non-natural residues (Aib, αMeF(2F), 4Pal); lipidated Lys; C-amide; synthetic construct; SITE 2: note = 2-Aminoisobutyric Acid; SITE 6: note = alpha-methyl-2-fluoro-L-phenylalanine; SITE 10: note = 3-(4-Pyridyl)-L-alanine; SITE 17: note = Lysine is chemically modified through conjugation of the epsilon-amino group of the Lysine side chain with (gamma-Glu)2-CO-(CH2)1) [Example 609]", "Relative cAMP EC50", 0.0784],
  ["YXQGTFTSDXSQXLDKKAQXAFIEYLIAGGESSGAPPPSGSEE (synthetic construct; SITE 2: note = 2-Aminoisobutyric Acid; SITE 10: note = 3-(4-Pyridyl)-L-alanine; SITE 13: note = alpha-methyl-leucine; SITE 17: note = Lysine is chemically modified through conjugation of the epsilon-amino group of the Lysine side chain with (gamma-Glu)2-CO-(CH2)16-CO2H; SITE 20:) [Example 963]", "Relative cAMP EC50", 0.244],
  ["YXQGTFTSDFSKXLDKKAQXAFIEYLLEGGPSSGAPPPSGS (synthetic construct; SITE 2: note = 2-Aminoisobutyric Acid; SITE 13: note = alpha-methyl-leucine; SITE 17: note = Lysine is chemically modified through conjugation of the epsilon-amino group of the Lysine side chain with (2-[2-(2-Amino-ethoxy)-ethoxy]-acetyl)2-(gamma-Glu)-CO-(CH2 )16-CO2H; SITE 20:) [Example 142]", "Relative cAMP EC50", 0.216]
]}

Can you look up the measured Relative cAMP EC50 of YXQGTXTSDXXIXLDXXAQXEFIEXLIEGGPSSGAPPPSGGGE (synthetic construct; SITE 2: note = 2-Aminoisobutyric Acid; SITE 6: note = alpha-methyl-2-fluoro-L-phenylalanine; SITE 10: note = 3-(4-Pyridyl)-L-alanine; SITE 11: note = alpha-methyl-L-serine; SITE 13: note = alpha-methyl-leucine; SITE 16: note = L-ornithine; SITE 17: note = Ornithine is chemically) [Example 1213] for me? 0.00721

And for YXQGTFTSDXXQXLDXKAQXQFIQXLIAGGPSSGEPPPSGGGE (not fully specified; non-natural residues; C18 diacid-γGlu-e on Lys; C-terminal amide; synthetic construct; SITE 2: note = 2-Aminoisobutyric Acid; SITE 10: note = 3-(4-Pyridyl)-L-alanine; SITE 11: note = alpha-methyl-L-serine; SITE 13: note = alpha-methyl-leucine; SITE 16: note = L-ornithine; SITE 17: note = Lysine is chemically modified through conjugation of the epsilon-amino group) [Example 1133] ? 0.0719

Then YXQGTFTSDXSQXLDKKAQXAFIEXLIEXGPSSGAPPPSGE (Aib, 4Pal, αMeL, Me4Pal; acylated K; C-terminal amide; synthetic construct; SITE 2: note = 2-Aminoisobutyric Acid; SITE 10: note = 3-(4-Pyridyl)-L-alanine; SITE 13: note = alpha-methyl-leucine; SITE 17: note = Lysine is chemically modified through conjugation of the epsilon-amino group of the Lysine side chain with (gamma-Glu)2-CO-(CH2)16-CO2H; SITE 20:) [Example 1120] ? 0.096

Another binder to check: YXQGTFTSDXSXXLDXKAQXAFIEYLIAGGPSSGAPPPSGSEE (non-natural residues, C-terminal amide, acylated Lys with fatty diacid; synthetic construct; SITE 2: note = 2-Aminoisobutyric Acid; SITE 10: note = 3-(4-Pyridyl)-L-alanine; SITE 12: note = …; SITE 13: note = alpha-methyl-leucine; SITE 16: note = L-ornithine; SITE 17: note = Lysine is chemically modified through conjugation of the epsilon-amino group of the Lys) [Example 1061] 0.656

Check YXQGTFTSDFSXXLDKKAQXAFIEYLLEAGPSSGXPPPSGX (synthetic construct; SITE 2: note = 2-Aminoisobutyric Acid; SITE 12: note = L-ornithine; SITE 13: note = alpha-methyl-leucine; SITE 17: note = Lysine is chemically modified through conjugation of the epsilon-amino group of the Lysine side chain with (2-[2-(2-Amino-ethoxy)-ethoxy]-acetyl)2-(gamma-Glu)) [Example 258] too. 0.154

Cool, now YXQGTFTSDFSXXLDKKAQXAFIEWLLEGGPSSGAPPPEGX (synthetic construct; SITE 2: note = 2-Aminoisobutyric Acid; SITE 12: note = L-ornithine; SITE 13: note = alpha-methyl-leucine; SITE 17: note = Lysine is chemically modified through conjugation of the epsilon-amino group of the Lysine side chain with (2-[2-(2-Amino-ethoxy)-ethoxy]-acetyl)-(gamma-Glu)) [Example 262] 0.232

Another binder to check: YXQGTFTSDFSKXLDKKAQXAFIEYLLEGGPSSGAPPPXEG (synthetic construct; SITE 2: note = 2-Aminoisobutyric Acid; SITE 13: note = alpha-methyl-leucine; SITE 17: note = Lysine is chemically modified through conjugation of the epsilon-amino group of the Lysine side chain with (2-[2-(2-Amino-ethoxy)-ethoxy]-acetyl)-(gamma-Glu)-CO-(CH2) 18-CO2H; SITE 20: n) [Example 52] 0.449

Now consider YXQGTFTSDXSQXLDKKAQXAFIEYLLEAGPSSGAPPPSGX (synthetic construct; SITE 2: note = 2-Aminoisobutyric Acid; SITE 10: note = 3-(4-Pyridyl)-L-alanine; SITE 13: note = alpha-methyl-leucine; SITE 17: note = Lysine is chemically modified through conjugation of the epsilon-amino group of the Lysine side chain with (2-[2-(2-Amino-ethoxy)-ethoxy]-acetyl)) [Example 822] . 0.186

For YXQGTFTSDXSQXLDKKAQXAFIEYLIAGGPSSGEPPPSGS (synthetic construct; SITE 2: note = 2-Aminoisobutyric Acid; SITE 10: note = 3-(4-Pyridyl)-L-alanine; SITE 13: note = alpha-methyl-leucine; SITE 17: note = Lysine is chemically modified through conjugation of the epsilon-amino group of the Lysine side chain with (gamma-Glu)2-CO-(CH2)16-CO2H; SITE 20:) [Example 968] then? 0.0928
